The reported numbers originate from patent US5500410A.

MIC Staphylococcus aureus TOUR by entry:
# System: Staphylococcus aureus TOUR
# ASSAY_EXPLANATION: In vitro MIC, two-fold dilution in microtiter
# Assay type: cell-based
# CONDITION: 18-24 h at 37° C., inoculum about 10^4 CFU/ml
ENDPOINT_NAME: MIC Staphylococcus aureus TOUR

| COMPOUND | RESULT |
| --- | --- |
| NCCCNCCNCCCNC(=O)C1NC(=O)C2NC(=O)C(NC(=O)C3NC(=O)C4NC(=O)C(Cc5ccc(c(Cl)c5)Oc5cc3cc(c5O)Oc3ccc(cc3Cl)C2O)NC(=O)C(N)c2ccc(O)c(c2)Oc2cc(O)cc4c2)c2ccc(O)c(c2)-c2c(O)cc(O)cc21 (stereo not shown) | 0.12 microgram/ml |
| CN(C)CCCN1CCN(C(=O)C2NC(=O)C3NC(=O)C(NC(=O)C4NC(=O)C5NC(=O)C(Cc6ccc(c(Cl)c6)Oc6cc4cc(c6O)Oc4ccc(cc4Cl)C3O)NC(=O)C(N)c3ccc(O)c(c3)Oc3cc(O)cc5c3)c3ccc(O)c(c3)-c3c(O)cc(O)cc32)CC1 (stereo not shown) | 0.06 microgram/ml |
| CCN(CC)CCN(CCCN)CCCNC(=O)C1NC(=O)C2NC(=O)C(NC(=O)C3NC(=O)C4NC(=O)C(Cc5ccc(c(Cl)c5)Oc5cc3cc(c5O)Oc3ccc(cc3Cl)C2O)NC(=O)C(N)c2ccc(O)c(c2)Oc2cc(O)cc4c2)c2ccc(O)c(c2)-c2c(O)cc(O)cc21 (stereo not shown) | 0.12 microgram/ml |
| CC(=O)N[C@H]1[C@H](OC2c3ccc(c(Cl)c3)Oc3cc4cc(c3O)Oc3ccc(cc3Cl)CC3NC(=O)C(N)c5ccc(O)c(c5)Oc5cc(O)cc(c5)C(NC3=O)C(=O)NC4C(=O)NC3C(=O)NC2C(=O)NC(C(=O)NCCCNCCCCNCCCN)c2cc(O)cc(O)c2-c2cc3ccc2O)O[C@H](CO)[C@@H](O)[C@@H]1O (stereo partly shown) | 0.12 microgram/ml |

* * *

Reported MIC Proteus vulgaris X19H ATCC 881 values are given for each entry in this list.
# Test system: Proteus vulgaris X19H ATCC 881
# ASSAY_EXPLANATION: In vitro MIC, two-fold dilution in microtiter
# Format: cell-based
# CONDITION: 18-24 h at 37° C., inoculum about 10^4 CFU/ml
# Experimental: Broth cultures are diluted enough so that the final inecuium is about 10^4 colony forming units/ml (CFU/ml).

| COMPOUND | MEASUREMENT_UNITS | BOUND_SIGN | MIC Proteus vulgaris X19H ATCC 881 |
| --- | --- | --- | --- |
| NCCNCCNC(=O)C1NC(=O)C2NC(=O)C(NC(=O)C3NC(=O)C4NC(=O)C(Cc5ccc(c(Cl)c5)Oc5cc3cc(c5O)Oc3ccc(cc3Cl)C2O)NC(=O)C(N)c2ccc(O)c(c2)Oc2cc(O)cc4c2)c2ccc(O)c(c2)-c2c(O)cc(O)cc21 (centres unmarked) | microgram/ml | = | 64 |
| CN(C)CCCN1CCN(C(=O)C2NC(=O)C3NC(=O)C(NC(=O)C4NC(=O)C5NC(=O)C(Cc6ccc(c(Cl)c6)Oc6cc4cc(c6O)Oc4ccc(cc4Cl)C3O)NC(=O)C(N)c3ccc(O)c(c3)Oc3cc(O)cc5c3)c3ccc(O)c(c3)-c3c(O)cc(O)cc32)CC1 (centres unmarked) | microgram/ml | = | 128 |
| CC(=O)NC1C(OC2c3ccc(c(Cl)c3)Oc3cc4cc(c3OC3OC(CO)C(O)C(O)C3NC(=O)CCCCCCC(C)C)Oc3ccc(cc3Cl)CC3NC(=O)C(N)c5ccc(O)c(c5)Oc5cc(O)cc(c5)C(NC3=O)C(=O)NC4C(=O)NC3C(=O)NC2C(=O)NC(C(=O)NCCCNCCCCNCCCN)c2cc(O)cc(OC4OC(CO)C(O)C(O)C4O)c2-c2cc3ccc2O)OC(CO)C(O)C1O (centres unmarked) | microgram/ml | = | 128 |
| CCN(CC)CCN(CCCN)CCCNC(=O)C1NC(=O)C2NC(=O)C(NC(=O)C3NC(=O)C4NC(=O)C(Cc5ccc(c(Cl)c5)Oc5cc3cc(c5O)Oc3ccc(cc3Cl)C2O)NC(=O)C(N)c2ccc(O)c(c2)Oc2cc(O)cc4c2)c2ccc(O)c(c2)-c2c(O)cc(O)cc21 (centres unmarked) | microgram/ml | > | 128 |
| NCCCNCCNCCCNC(=O)C1NC(=O)C2NC(=O)C(NC(=O)C3NC(=O)C4NC(=O)C(Cc5ccc(c(Cl)c5)Oc5cc3cc(c5O)Oc3ccc(cc3Cl)C2O)NC(=O)C(N)c2ccc(O)c(c2)Oc2cc(O)cc4c2)c2ccc(O)c(c2)-c2c(O)cc(O)cc21 (centres unmarked) | microgram/ml | = | 64 |

* * *

# Test system: Proteus vulgaris X19H ATCC 881
# ASSAY_EXPLANATION: In vitro MIC, two-fold dilution in microtiter
# Assay type: cell-based
# CONDITION: 18-24 h at 37° C., inoculum about 10^4 CFU/ml

| COMPOUND | MIC Proteus vulgaris X19H ATCC 881 |
| --- | --- |
| CC(=O)N[C@H]1[C@H](OC2c3ccc(c(Cl)c3)Oc3cc4cc(c3O)Oc3ccc(cc3Cl)CC3NC(=O)C(N)c5ccc(O)c(c5)Oc5cc(O)cc(c5)C(NC3=O)C(=O)NC4C(=O)NC3C(=O)NC2C(=O)NC(C(=O)NCCCNCCCCNCCCN)c2cc(O)cc(O)c2-c2cc3ccc2O)O[C@H](CO)[C@@H](O)[C@@H]1O (stereo partly drawn) | 128 microgram/ml |
| CC(=O)NC1C(OC2c3ccc(c(Cl)c3)Oc3cc4cc(c3OC3OC(CO)C(O)C(O)C3NC(=O)CCCCCCC(C)C)Oc3ccc(cc3Cl)CC3NC(=O)C(N)c5ccc(O)c(c5)Oc5cc(O)cc(c5)C(NC3=O)C(=O)NC4C(=O)NC3C(=O)NC2C(=O)NC(C(=O)NCCCNCCCNCCCN)c2cc(O)cc(OC4OC(CO)C(O)C(O)C4O)c2-c2cc3ccc2O)OC(CO)C(O)C1O (stereo not drawn) | > 128 microgram/ml |
| NCCCN(CCCN)CCCNC(=O)C1NC(=O)C2NC(=O)C(NC(=O)C3NC(=O)C4NC(=O)C(Cc5ccc(c(Cl)c5)Oc5cc3cc(c5O)Oc3ccc(cc3Cl)C2O)NC(=O)C(N)c2ccc(O)c(c2)Oc2cc(O)cc4c2)c2ccc(O)c(c2)-c2c(O)cc(O)cc21 (stereo not drawn) | 128 microgram/ml |

* * *

Attribute: MIC Staphylococcus epidermidis ATCC 12228
# Test system: Staphylococcus epidermidis ATCC 12228
# ASSAY_EXPLANATION: In vitro MIC, two-fold dilution in microtiter
# Format: cell-based
# CONDITION: 18-24 h at 37° C., inoculum about 10^4 CFU/ml
ENDPOINT_NAME: MIC Staphylococcus epidermidis ATCC 12228

| COMPOUND | RESULT |
| --- | --- |
| NCCCN(CCCN)CCCNC(=O)C1NC(=O)C2NC(=O)C(NC(=O)C3NC(=O)C4NC(=O)C(Cc5ccc(c(Cl)c5)Oc5cc3cc(c5O)Oc3ccc(cc3Cl)C2O)NC(=O)C(N)c2ccc(O)c(c2)Oc2cc(O)cc4c2)c2ccc(O)c(c2)-c2c(O)cc(O)cc21 (stereo not drawn) | 0.008 microgram/ml |
| CC(=O)NC1C(OC2c3ccc(c(Cl)c3)Oc3cc4cc(c3OC3OC(CO)C(O)C(O)C3NC(=O)CCCCCCC(C)C)Oc3ccc(cc3Cl)CC3NC(=O)C(N)c5ccc(O)c(c5)Oc5cc(O)cc(c5)C(NC3=O)C(=O)NC4C(=O)NC3C(=O)NC2C(=O)NC(C(=O)NCCCNCCCNCCCN)c2cc(O)cc(OC4OC(CO)C(O)C(O)C4O)c2-c2cc3ccc2O)OC(CO)C(O)C1O (stereo not drawn) | 0.06 microgram/ml |
| NCCCNCCCCCCCCCCNCCCNC(=O)C1NC(=O)C2NC(=O)C(NC(=O)C3NC(=O)C4NC(=O)C(Cc5ccc(c(Cl)c5)Oc5cc3cc(c5O)Oc3ccc(cc3Cl)C2O)NC(=O)C(N)c2ccc(O)c(c2)Oc2cc(O)cc4c2)c2ccc(O)c(c2)-c2c(O)cc(O)cc21 (stereo not drawn) | 0.12 microgram/ml |

* * *

Overview of reported MIC Staphylococcus epidermidis ATCC 12228 across a group of molecules:
# Test system: Staphylococcus epidermidis ATCC 12228
# ASSAY_EXPLANATION: In vitro MIC, two-fold dilution in microtiter
# Assay type: cell-based
# CONDITION: 18-24 h at 37° C., inoculum about 10^4 CFU/ml
ENDPOINT_NAME: MIC Staphylococcus epidermidis ATCC 12228 (microgram/ml)

| MOLECULE | QUANTITATIVE_READOUT |
| --- | --- |
| CCN(CC)CCN(CCCN)CCCNC(=O)C1NC(=O)C2NC(=O)C(NC(=O)C3NC(=O)C4NC(=O)C(Cc5ccc(c(Cl)c5)Oc5cc3cc(c5O)Oc3ccc(cc3Cl)C2O)NC(=O)C(N)c2ccc(O)c(c2)Oc2cc(O)cc4c2)c2ccc(O)c(c2)-c2c(O)cc(O)cc21 (stereo not drawn) | 0.03 |
| NCCCNCCCCCCCCCNCCCNC(=O)C1NC(=O)C2NC(=O)C(NC(=O)C3NC(=O)C4NC(=O)C(Cc5ccc(c(Cl)c5)Oc5cc3cc(c5O)Oc3ccc(cc3Cl)C2O)NC(=O)C(N)c2ccc(O)c(c2)Oc2cc(O)cc4c2)c2ccc(O)c(c2)-c2c(O)cc(O)cc21 (stereo not drawn) | 0.12 |
| CC(=O)N[C@H]1[C@H](OC2c3ccc(c(Cl)c3)Oc3cc4cc(c3O)Oc3ccc(cc3Cl)CC3NC(=O)C(N)c5ccc(O)c(c5)Oc5cc(O)cc(c5)C(NC3=O)C(=O)NC4C(=O)NC3C(=O)NC2C(=O)NC(C(=O)NCCCNCCCCNCCCN)c2cc(O)cc(O)c2-c2cc3ccc2O)O[C@H](CO)[C@@H](O)[C@@H]1O (stereo partly drawn) | 0.06 |
